# cleaved RNA product abundance per record follows
# Tested on: Bacillus subtilis
# EXPERIMENT NOTES: cleaved RNA product abundance (RNA/gDNA barcode ratio) relative to median wild-type variant (ratio to wild type); higher = more accumulation of the downstream cleavage product
# CONDITION LABEL: experiment (reporter, strain, medium): exp 4a: truncated aprE reporter, strain BJT201 with 2% xylose (RNase J1 expressed); cleavage site: cggR-gapA (positions -7 to +36 mutated)
PROPERTY LABEL: cleaved RNA product abundance

sequence_entry=ACAGACGAAGGAGCCGCAAACAAGTTATTAAGGGACGAATAATCCCTCAATATAAATATCTCTCACTTATTTAAA assay_target="Bacillus subtilis" result_number=0.279
sequence_entry=ACAGACGAAGGAGCCGCAAAGAAGTTATTAAGGTATGAATAATCCCTCAAGATAAATATCTCTCACTTATTTAAA assay_target="Bacillus subtilis" result_number=0.151
sequence_entry=ACAGACGAAGGAGCCGCAAATAAGTTATTAAGGGATGAATAATCCCACAATATAAATATCTCTCACTTATTTAAA assay_target="Bacillus subtilis" result_number=0.187
sequence_entry=ACAGACGAAGGAGCCGCAAAGATATTATTAAGGGATGAATAATCCCTCAATATAAATATCTCTCACTTATTTAAA assay_target="Bacillus subtilis" result_number=0.459
sequence_entry=ACAGACGAAGGAGCCGCAAAGAAGTTAGTAAGGGATGAATAATCCCTTAATATAAATATCTCTCACTTATTTAAA assay_target="Bacillus subtilis" result_number=0.724
sequence_entry=ACAGACGAAGGAGCCGCAAAAAAGTTATTTAGGGATGAATAATCCCTCAATATAAATATCTCTCACTTATTTAAA assay_target="Bacillus subtilis" result_number=0.552
sequence_entry=ACAGACGAAGGAGCCGCATAGAAGTTATTAAGGCATGAATAAGCCCTCAATATAAATATCTCTCACTTATTTAAA assay_target="Bacillus subtilis" result_number=0.143
sequence_entry=ACAGACGAAGGAGCCGCAAAGAAGTTCTTAAGGGATGAATATTCCCTCAATATAAATATCTCTCACTTATTTAAA assay_target="Bacillus subtilis" result_number=0.245
sequence_entry=ACAGACGAAGGAGCCGCAAAGAAGTAATTAAGGGATGAATAATCCCTCAATGTAAATATCTCTCACTTATTTAAA assay_target="Bacillus subtilis" result_number=0.114
sequence_entry=ACAGACGAAGGAGCCGCAAAGAAGTAATTAAGGTATGAATAATCCCTCAATATAAATATCTCTCACTTATTTAAA assay_target="Bacillus subtilis" result_number=0.112
sequence_entry=ACAGACGAAGGAGCCGCAAAGAAGTTATTAAGGCATGAATAATCCCTTAATATAAATATCTCTCACTTATTTAAA assay_target="Bacillus subtilis" result_number=0.291
sequence_entry=ACAGACGAAGGAGCCGCAAAGAAGTTATTAAGGGATGAATAATCCCTCAATATAAATAACTCTCACTTATTTAAA assay_target="Bacillus subtilis" result_number=0.849
sequence_entry=ACAGACGAAGGAGCCGCAAAGCAGTTATTAAGGGATGAATAACCCCTCAATATAAATATCTCTCACTTATTTAAA assay_target="Bacillus subtilis" result_number=0.275
sequence_entry=ACAGACGAAGGAGCCGCAAAGAAGTTATTAAGGGTAGAATAATCCCTCAATATAAATATCTCTCACTTATTTAAA assay_target="Bacillus subtilis" result_number=0.293
sequence_entry=ACAGACGAAGGAGCCGCAAAGAAGTTATTAAGGGATGAATATTCGCTCAATATAAATATCTCTCACTTATTTAAA assay_target="Bacillus subtilis" result_number=0.086
